Target: Serine/threonine-protein kinase B-raf (Homo sapiens, UniProt P15056, V600E)
Sequence (P15056 2-766 V600E limits assumed): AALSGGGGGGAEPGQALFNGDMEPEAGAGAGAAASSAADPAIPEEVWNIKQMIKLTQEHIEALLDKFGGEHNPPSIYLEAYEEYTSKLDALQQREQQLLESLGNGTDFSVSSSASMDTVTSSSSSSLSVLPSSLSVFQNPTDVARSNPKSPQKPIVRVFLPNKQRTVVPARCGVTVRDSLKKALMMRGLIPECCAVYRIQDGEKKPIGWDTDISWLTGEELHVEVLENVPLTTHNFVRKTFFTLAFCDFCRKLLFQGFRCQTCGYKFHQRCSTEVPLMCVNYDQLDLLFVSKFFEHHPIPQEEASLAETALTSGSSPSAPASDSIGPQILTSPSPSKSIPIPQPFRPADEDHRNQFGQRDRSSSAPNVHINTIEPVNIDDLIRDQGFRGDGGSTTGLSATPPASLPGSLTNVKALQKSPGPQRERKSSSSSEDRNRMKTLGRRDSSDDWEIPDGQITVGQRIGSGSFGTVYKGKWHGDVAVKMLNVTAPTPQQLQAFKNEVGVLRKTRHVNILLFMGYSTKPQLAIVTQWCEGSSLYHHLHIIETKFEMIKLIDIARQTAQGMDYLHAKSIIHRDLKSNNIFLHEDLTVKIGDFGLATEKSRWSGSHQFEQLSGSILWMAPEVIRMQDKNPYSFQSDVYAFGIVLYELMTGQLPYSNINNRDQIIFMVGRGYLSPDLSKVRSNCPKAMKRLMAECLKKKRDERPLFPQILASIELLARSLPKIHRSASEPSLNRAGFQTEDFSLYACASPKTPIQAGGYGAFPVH
Assay: Inhibition of B-Raf V600E mutant-mediated ERK phosphorylation in human A375 cells after 3 hrs by immunoblotting method
Assay type: cell-based, A-375
Conditions: in the assay text read “whole cell ELISA” for “immunoblotting method”
Item-by-item account of pIC50
Scale for pIC50: -log10 of concentration given in mol/L; no unit attached.

For orientation, consider the following solved cases.
Problem: Field request: pIC50 | item: O=C(c1cc(-c2ccco2)on1)N1N=C(c2cccnc2)CC1c1ccccc1O (centres undefined)
Solution: 6.01

Problem: Field request: pIC50 | item: O=C(CC1CC1)N1N=C(c2cccnc2)CC1c1ccccc1O (centres undefined)
Solution: 5.10

More entries:
Problem: Field request: pIC50 | item: Cc1ccc(-c2ccc(C(=O)N3N=C(c4cccnc4)CC3c3ccccc3O)o2)cc1 (centres undefined)
Solution: 5.62

Problem: Field request: pIC50 | item: Cc1nc(-c2cccnc2)sc1C(=O)N1N=C(c2cccnc2)CC1c1ccccc1O (centres undefined)
Solution: 6.03

Problem: Field request: pIC50 | item: Cc1nc(-c2cnccn2)sc1C(=O)N1N=C(c2cccnc2)CC1c1ccccc1O (centres undefined)
Solution: 6.15

Problem: Field request: pIC50 | item: O=C(c1[nH]nc2c1CCC2)N1N=C(c2cccnc2)CC1c1ccccc1O (centres undefined)
Solution: 6.46

Problem: Field request: pIC50 | item: O=C(c1cccs1)N1N=C(c2cccnc2)CC1c1ccccc1O (centres undefined)
Solution: 5.82

----------
Biological target: Serine/threonine-protein kinase B-raf (Homo sapiens, UniProt P15056, V600E)
Test: Inhibition of human B-Raf V600E mutant after 3 hrs
Item-by-item account of IC50

For orientation, consider the following solved cases.
Problem: API: value(readout= IC50, system= Serine/threonine-protein kinase B-raf (Homo sapiens, UniProt P15056, V600E), query= O=C(c1ccc(F)cc1C(F)(F)F)N1N=C(c2cccnc2)CC1c1ccccc1O (stereo not given) )
Solution: > 10000 nM

Problem: API: value(readout= IC50, system= Serine/threonine-protein kinase B-raf (Homo sapiens, UniProt P15056, V600E), query= O=C(c1cccc2c(F)cccc12)N1N=C(c2cccnc2)CC1c1ccccc1O (stereo not given) )
Solution: > 10000 nM

Problem: API: value(readout= IC50, system= Serine/threonine-protein kinase B-raf (Homo sapiens, UniProt P15056, V600E), query= Cc1nc(-c2cnccn2)sc1C(=O)N1N=C(c2cccnc2)CC1c1ccccc1O (stereo not given) )
Solution: 6.5 nM

Problem: API: value(readout= IC50, system= Serine/threonine-protein kinase B-raf (Homo sapiens, UniProt P15056, V600E), query= O=C(c1cc2c(s1)CCC2)N1N=C(c2cccnc2)CC1c1ccccc1O (stereo not given) )
Solution: 6.9 nM

Problem: API: value(readout= IC50, system= Serine/threonine-protein kinase B-raf (Homo sapiens, UniProt P15056, V600E), query= O=C(c1ccccc1-c1ccc(F)cc1)N1N=C(c2cccnc2)CC1c1ccccc1O (stereo not given) )
Solution: > 10000 nM

Problem: API: value(readout= IC50, system= Serine/threonine-protein kinase B-raf (Homo sapiens, UniProt P15056, V600E), query= O=C(c1cncc(-c2cccs2)c1)N1N=C(c2cccnc2)CC1c1ccccc1O (stereo not given) )
Solution: 260 nM

Problem: API: value(readout= IC50, system= Serine/threonine-protein kinase B-raf (Homo sapiens, UniProt P15056, V600E), query= O=C(c1cc(-c2ccccc2O)on1)N1N=C(c2cccnc2)CC1c1ccccc1O (stereo not given) )
Solution: 14.3 nM

Problem: API: value(readout= IC50, system= Serine/threonine-protein kinase B-raf (Homo sapiens, UniProt P15056, V600E), query= Cc1ccc(-c2ccc(C(=O)N3N=C(c4cccnc4)CC3c3ccccc3O)o2)cc1 (stereo not given) )
Solution: 58 nM

Problem: API: value(readout= IC50, system= Serine/threonine-protein kinase B-raf (Homo sapiens, UniProt P15056, V600E), query= O=S(=O)(c1ccc(-c2cccnc2)s1)N1N=C(c2cccnc2)CC1c1ccccc1O (stereo not given) )
Solution: 2000 nM

Consider the additional compound presented here.
Problem: API: value(readout= IC50, system= Serine/threonine-protein kinase B-raf (Homo sapiens, UniProt P15056, V600E), query= O=C(c1cccc(-n2cnnn2)c1)N1N=C(c2cccnc2)CC1c1ccccc1O (stereo not given) )
Solution: 28 nM

----------
Biological target: Serine/threonine-protein kinase B-raf (Homo sapiens, UniProt P15056, V600E)
Experiment: Inhibition of human B-Raf V600E mutant after 3 hrs
recorded-endpoint: pIC50
Scale for pIC50: -log10 of concentration given in mol/L; no unit attached.

Problem: Field request: pIC50 | item: COc1ccc(-c2ccc(C(=O)N3N=C(c4cccnc4)CC3c3ccccc3O)o2)cc1 (centres undefined)
Solution: 7.74

Problem: Field request: pIC50 | item: O=C(c1ccc(-c2ccc(Cl)cc2)s1)N1N=C(c2cccnc2)CC1c1ccccc1O (centres undefined)
Solution: 6.85

Problem: Field request: pIC50 | item: O=C(c1cc(-c2ccc(Cl)cc2)cs1)N1N=C(c2cccnc2)CC1c1ccccc1O (centres undefined)
Solution: 6.67

Consider the additional compound presented here.
Problem: Field request: pIC50 | item: COc1ccc(-c2cc(C(=O)N3N=C(c4cccnc4)CC3c3ccccc3O)no2)cc1 (centres undefined)
Solution: 7.81

----------
Molecular target: Serine/threonine-protein kinase B-raf (Homo sapiens, UniProt P15056, V600E)
Test: Inhibition of B-Raf V600E mutant-mediated ERK phosphorylation in human A375 cells after 3 hrs by immunoblotting method
Assay type: cell-based, A-375
Conditions: in the assay text read “whole cell ELISA” for “immunoblotting method”
recorded-endpoint: pIC50
Scale for pIC50: -log10 of concentration given in mol/L; no unit attached.

Problem: Field request: pIC50 | item: Cc1nc(-c2ccccc2)sc1C(=O)N1N=C(c2cccnc2)CC1c1ccccc1O (stereo not drawn)
Solution: 5.89

----------
Molecular target: Serine/threonine-protein kinase B-raf (Homo sapiens, UniProt P15056, V600E)
Test: Inhibition of B-Raf V600E mutant-mediated ERK phosphorylation in human A375 cells after 3 hrs by immunoblotting method
Format: cell-based, A-375
Settings: in the assay text read “whole cell ELISA” for “immunoblotting method”
Item-by-item account of pIC50
Scale for pIC50: -log10 of concentration given in mol/L; no unit attached.

For orientation, consider the following solved cases.
Problem: Field request: pIC50 | item: O=C(c1cc2c(s1)CCC2)N1N=C(c2cccnc2)CC1c1ccccc1O (configuration not stated)
Solution: 6.04

Problem: Field request: pIC50 | item: O=C(c1ccc(Br)o1)N1N=C(c2cccnc2)CC1c1ccccc1O (configuration not stated)
Solution: 5.85

Problem: Field request: pIC50 | item: O=C(c1cc(-c2ccccc2)no1)N1N=C(c2cccnc2)CC1c1ccccc1O (configuration not stated)
Solution: 5.96

Problem: Field request: pIC50 | item: COc1ccc(-c2ccc(C(=O)N3N=C(c4cccnc4)CC3c3ccccc3O)o2)cc1 (configuration not stated)
Solution: 5.43

Problem: Field request: pIC50 | item: COc1cccc(-c2cc(C(=O)N3N=C(c4cccnc4)CC3c3ccccc3O)no2)c1 (configuration not stated)
Solution: 6.03

More entries:
Problem: Field request: pIC50 | item: O=C(c1cccc(-n2cccn2)c1)N1N=C(c2cccnc2)CC1c1ccccc1O (configuration not stated)
Solution: 5.06

Problem: Field request: pIC50 | item: CCOc1cccc2cc(C(=O)N3N=C(c4cccnc4)CC3c3ccccc3O)oc12 (configuration not stated)
Solution: 5.46
